# Tested on: VERO cells
# ASSAY DETAILS: Cytotoxicity on VERO cells (MTT), anti-T. cruzi study
# MEASUREMENT CONTEXT: Chlorocebus sabaeus, Vero, read-out: IC50 VERO
pIC50: −log10 of the molar value.
Parameter: pIC50. Scope: all listed entries.
RESULT TYPE: pIC50

INSERT INTO results (smiles_code, observed_measurement) VALUES
  ('C=CCOc1cc(OC)c(C(=O)/C=C/c2ccccc2Br)c(OCC=C)c1', 4.86),
  ('C=CCOc1cc(OC)c(C(=O)/C=C/c2ccccc2)c(OCC=C)c1', 4.77);

---

Parameter: IC50 at 48 h. Scope: all listed entries.
# ASSAY DETAILS: Toxicity to peritoneal macrophages (Trypan Blue count)
# Format: cell-based, BALB/C mouse
# MEASUREMENT CONTEXT: BALB/C, mouse, Cytotoxicity Macrophages IC50
# Experimental: Peritoneal macrophages were prepared as follows. Non-inflammatory macrophages (10^6) were collected from each BALB/C mouse. The cells adhered at 37° C. after 2 h under 5% CO2 in a CO2 incubator. The plates were then rinsed two to three times with 0.5 mL of RPMI+buffer MOPS without fetal calf serum to eliminate non-adhering cells. […] Cover glasses N° 1 were left where cells were plated and then the number of macrophages in a microscope was determined with a haemocytometer. […]
RESULT TYPE: IC50 at 48 h (µM)

INSERT INTO results (smiles_code, result_type, observed_measurement) VALUES
  ('Oc1ccc(/C=N\Nc2ncnc3sc4c(c23)CCCC4)cc1', 'IC50 at 48 h', 57.8),
  ('C(=N/Nc1ncnc2sc3c(c12)CCCC3)/c1ccc[nH]1', 'IC50 at 48 h', 2.9),
  ('CC(C)c1ccc(/C=N\Nc2ncnc3sc4c(c23)CCCC4)cc1', 'IC50 at 48 h', 3),
  ('CC(C)(C)c1ccc(/C=N\Nc2ncnc3sc4c(c23)CCCC4)cc1', 'IC50 at 48 h', 2.4),
  ('Brc1ccc(/C=N\Nc2ncnc3sc4c(c23)CCCC4)cc1', 'IC50 at 48 h', 3),
  ('C(=N/Nc1ncnc2sc3c(c12)CCCC3)/c1ccc2c(c1)OCO2', 'IC50 at 48 h', 5.7),
  ('Clc1ccccc1/C=N\Nc1ncnc2sc3c(c12)CCCC3', 'IC50 at 48 h', 3.8);

---

# System: M. tuberculosis H37Rv
# ASSAY DETAILS: Anti-tuberculosis bioassay (tetrazolium microplate MIC)
# Type: cell-based
# MEASUREMENT CONTEXT: Mycobacterium tuberculosis, read-out: Mycobacterium MIC H37Rv, Table 5
Parameter: MIC. Scope: all listed entries.
RESULT TYPE: MIC (µg/mL)

INSERT INTO results (smiles_code, bound_operator, observed_measurement) VALUES
  ('O=[N+]([O-])c1ccc(/C=N\Nc2ncnc3sc4c(c23)CCCC4)cc1', '>', 25),
  ('Clc1ccc(/C=N\Nc2ncnc3sc4c(c23)CCCC4)cc1', '=', 12.5),
  ('COc1cc(/C=N\Nc2ncnc3sc4c(c23)CCCC4)cc(OC)c1O', '>', 25),
  ('C(=N/Nc1ncnc2sc3c(c12)CCCC3)/c1ccccc1', '=', 6.25),
  ('Fc1ccccc1/C=N\Nc1ncnc2sc3c(c12)CCCC3', '=', 3.12),
  ('COc1cc(/C=N\Nc2ncnc3sc4c(c23)CCCC4)cc(OC)c1OC', '>', 25);

---

# Test system: Trypanosoma cruzi (Tulahuen C4)
# ASSAY DETAILS: In vitro anti-T. cruzi activity (β-galactosidase CPRG colorimetric assay in VERO monolayer)
# Type: cell-based
# MEASUREMENT CONTEXT: Trypanosoma cruzi, TULAHUEN, Vero, Table 3; read-out: IC50 T. cruzi
Parameter: IC50. Scope: all listed entries.
RESULT TYPE: IC50 (µM)

INSERT INTO measurements (smiles_code, result_type, bound_operator, observed_measurement) VALUES
  ('COc1ccc(/C=C/C(=O)c2c(O)cc(O)cc2OC)cc1', 'IC50', '>', 25),
  ('C=CCOc1cc(OC)c(C(=O)/C=C/c2ccccc2F)c(OCC=C)c1', 'IC50', '=', 6.2),
  ('C=CCOc1cc(OC)c(C(=O)/C=C/c2ccc(OC)cc2OC)c(OCC=C)c1', 'IC50', '=', 13.1),
  ('C=CCOc1cc(OC)c(C(=O)/C=C/c2ccc(C(F)(F)F)cc2)c(OCC=C)c1', 'IC50', '=', 15.6),
  ('COc1cc(O)c(C(=O)CCc2ccc3c(c2)OCO3)c(OC)c1', 'IC50', '>', 100),
  ('COc1ccc(/C=C/C(=O)c2c(O)cc(OC)cc2OC)cc1', 'IC50', '>', 25),
  ('C=CCOc1cc(OC)c(C(=O)/C=C/c2ccco2)c(OCC=C)c1', 'IC50', '=', 12.2),
  ('C=CCOc1cc(OC)c(C(=O)/C=C/c2ccc(O)cc2)c(OCC=C)c1', 'IC50', '=', 20.3),
  ('C=CCOc1cc(OC)c(C(=O)/C=C/c2ccc(C)cc2)c(OCC=C)c1', 'IC50', '=', 17.2),
  ('C=CCOc1cc(OC)c(C(=O)/C=C/c2ccc(O)c(OC)c2)c(OCC=C)c1', 'IC50', '>', 25),
  ('COc1ccc(CCC(=O)c2c(O)cc(O)cc2OC)cc1', 'IC50', '>', 25),
  ('C=CCOc1cc(OC)c(C(=O)/C=C/c2ccccc2Br)c(OCC=C)c1', 'IC50', '=', 13.9),
  ('C=CCOc1cc(OC)c(C(=O)/C=C/c2ccncc2)c(OCC=C)c1', 'IC50', '=', 1.5);

---

# Tested on: peritoneal macrophages
# ASSAY DETAILS: Toxicity to peritoneal macrophages (Trypan Blue count)
# Assay type: cell-based, BALB/C mouse
pIC50: −log10 of the molar value.
RESULT TYPE: pIC50

INSERT INTO measurements (molecule, bound_operator, observed_measurement) VALUES
  ('N#Cc1ccc(C=NNc2ncnc3sc4c(c23)CCCC4)cc1', '=', 4.27),
  ('CC(C)=NNc1ncnc2sc3c(c12)CCCC3', '=', 4.21),
  ('Fc1ccc(C=NNc2ncnc3sc4c(c23)CCCC4)cc1', '=', 5.51),
  ('C(=Cc1ccccc1)C=NNc1ncnc2sc3c(c12)CCCC3', '=', 6.22),
  ('Cc1ccc(C=NNc2ncnc3sc4c(c23)CCCC4)cc1', '=', 5.20),
  ('CC(C)(C)C=NNc1ncnc2sc3c(c12)CCCC3', '=', 4.29),
  ('FC(F)(F)c1ccccc1C=NNc1ncnc2sc3c(c12)CCCC3', '=', 5.92),
  ('C[C@@H]1[C@H](O)[C@@H](C)/C=C/C=C/C=C/C=C/C=C/C=C/C=C/[C@H](O[C@@H]2O[C@H](C)[C@@H](O)[C@H](N)[C@@H]2O)C[C@@H]2O[C@](O)(C[C@@H](O)C[C@@H](O)[C@H](O)CC[C@@H](O)C[C@@H](O)CC(=O)O[C@H]1C)C[C@H](O)[C@H]2C(=O)O [Amphotericin B, reference compound]', '=', 5.27),
  ('O=[N+]([O-])c1ccccc1C=NNc1ncnc2sc3c(c12)CCCC3', '<', 4.00);

---

# Test system: Trypanosoma cruzi (Tulahuen C4)
# ASSAY DETAILS: In vitro anti-T. cruzi activity (β-galactosidase CPRG colorimetric assay in VERO monolayer)
# Assay type: cell-based
# MEASUREMENT CONTEXT: Trypanosoma cruzi, TULAHUEN, Vero, Table 3; read-out: IC50 T. cruzi
Parameter: IC50. Scope: all listed entries.
RESULT TYPE: IC50 (µM)

INSERT INTO results (molecule, unit, bound_operator, observed_measurement) VALUES
  ('CC1CS(=O)(=O)CCN1/N=C/c1ccc([N+](=O)[O-])o1 (centres unmarked) [Nifurtimox, reference compound]', 'µM', '=', 0.52),
  ('C=CCOc1cc(OC)c(C(=O)/C=C/c2ccc3c(c2)OCO3)c(OCC=C)c1', 'µM', '=', 13.6),
  ('C=CCOc1cc(OC)c(C(=O)/C=C/c2ccc[nH]2)c(OCC=C)c1', 'µM', '>', 100),
  ('C=CCOc1cc(OC)c(C(=O)/C=C/c2ccc(F)cc2)c(OCC=C)c1', 'µM', '=', 14.3),
  ('C=CCOc1cc(OC)c(C(=O)/C=C/c2ccc([N+](=O)[O-])cc2)c(OCC=C)c1', 'µM', '=', 4.1),
  ('C=CCOc1cc(OC)c(C(=O)/C=C/c2cc(OCC=C)c(Br)c(OCC=C)c2)c(OCC=C)c1', 'µM', '=', 6.9),
  ('COc1ccc(CCC(=O)c2c(O)cc(OC)cc2OC)cc1', 'µM', '>', 100),
  ('C=CCOc1cc(OC)c(C(=O)/C=C/C=C/c2ccccc2)c(OCC=C)c1', 'µM', '>', 25);
